test_readout: melting point

Any idea what its melting point is? The molecule is O=S(=O)(c1ccc(Cl)cc1)C(CCCCCCO)c1cc(F)ccc1F (stereo not given)
77 to 79 °C

Can you check CCOC(=NC(=O)c1ccc(Cl)cc1)N1Cc2ccccc2-c2ccccc2C1 next?
106 to 107 °C

Can you check COc1cc2nc(N3CCc4c(CO)cccc4C3)[nH]c(=O)c2cc1OC next?
200 to 206 °C

Can you check CCOC1CC2(C)C(CCC3C4CC(C)C(C(C)=O)C4(C)CC(=O)C32)CC1O (stereo not given) next?
178 to 179 °C

Can you check CCOC(=O)c1ccc(-c2nc(N)sc2Cc2ccc(S(C)(=O)=O)cc2)cc1 next?
206 to 207 °C

---
Any idea what its melting point is? The molecule is COc1cc(NC(=O)C(C#N)=CNc2ccc(OC)c(Br)c2)c(Cl)cc1Cl
> 250 °C

Can you check C#CCOc1ccc(NCc2ccc(Cl)nc2)c(C(=O)c2ccc(C(C)C)cc2)c1 next?
96 °C

Can you check CC(C)(C)c1cc(C(=O)Oc2ccc(C(=O)O)cc2)cc(C(C)(C)C)c1O next?
223 to 224 °C

Can you check COc1cccc2c(OCCN3CCOCC3)c(-c3ccccc3)c(=O)oc12 next?
90 to 91 °C

Can you check C=C(C)c1cccc(-n2c(C(F)(F)F)nn(C)c2=S)c1 next?
64 to 66 °C

Can you check COc1ccc(CS[C@@H]2CN[C@H](C(N)=O)C2)cc1 next?
120 to 121 °C

Can you check COc1ccc2c(-c3cnc4[nH]cc(C(=O)N[C@H](C)C(=O)N5CC(C#N)C5)c4n3)nn(C)c2c1 next?
220 to 240 °C

Can you check CN1C(=O)[C@@H](NC(=O)OC(C)(C)C)CSc2ccccc21 next?
116 to 120 °C

Can you check O=C(Nc1cc(Cl)c([N+](=O)[O-])cc1O)C(=O)Nc1cc(Cl)c([N+](=O)[O-])cc1O next?
302 °C

----------
test_readout: melting point

Any idea what its melting point is? The compound is CCOC(=O)Cc1ccc(-c2cn3cccnc3n2)cc1
155 to 158 °C

Can you check CCOc1ccc(C2=NNCCC2)cc1OCC next?
77 to 78 °C

Can you check CCn1nnnc1SCc1c(S(C)(=O)=O)ccc(C(=O)OC2=CC(=O)CCC2)c1Cl next?
122 to 123 °C

Can you check CN(C)CCCC(O)c1ccc(F)cc1-c1ccccc1 (stereo not given) next?
60 to 62 °C

Can you check Cc1nnc2cc(-c3ccccn3)ccn12 next?
239 to 241 °C

---
Any idea what its melting point is? The compound is CC(=O)OC1CSC(Sc2ccc(C(C)=O)cc2)C(OC(C)=O)C1OC(C)=O (stereo not given)
122 °C

Can you check Cc1cc(N(C)C)ccc1Br next?
47 to 49 °C

Can you check O=Cc1coc2c(c1=O)CCc1ccccc1-2 next?
153 to 156 °C

Can you check O=C(NCc1ccc(Cl)cc1)c1cnc2sc(C#CCO)cc2c1O next?
233 to 236 °C

Can you check CCCCn1nc(-c2cc(C(C)(C)C)c(O)c(C(C)(C)C)c2)c2cccnc21 next?
94 to 96 °C
